# Test: Human HepG2 cell viability assay in 384 well format
# Type: toxicity, cell-based
# Set-up: dose 125 nL, time 70.5 hour; concentration not given beside the values
# Measurement parameters: HepG2 cells, read-out: Inhibition
Test readout: cytotoxicity at 70.5 h (%)
Give bare numbers, in %.

// solved cases for cytotoxicity at 70.5 h follow
{"Molecule": "CCOC(=O)N1[C@@H](c2ccco2)[C@@H](CO)C[C@]12CCCCNC2=O", "Measurement units": "%", "cytotoxicity at 70.5 h": -6.22}
{"Molecule": "c1cc(CNCc2ccnc(N3CCOCC3)c2)c2c(c1)OCCO2", "Measurement units": "%", "cytotoxicity at 70.5 h": -9.77}

I would be grateful if you could provide cytotoxicity at 70.5 h for each of the following entries.
1. CCN1C(=O)CCC12CCCN(Cc1nccs1)C2 (configuration not stated)
2. CN1CCOC(CNCc2csc(C3CCCCC3)n2)C1 (configuration not stated)
3. CCOc1ccc(Cl)c(C(=O)NCc2ccc(C(=O)NC)cc2)n1
4. Cn1cc(-c2ccc(C3CCCCN3Cc3cccnc3)cn2)cn1 (configuration not stated)

Reply:
[-13.8, -13.3, 4.62, -1.27]
